# Experimental system: T1, Activin A (UniProt P08476 311-426)
# T1 construct: also called ActA
# T1 sequence (looked up): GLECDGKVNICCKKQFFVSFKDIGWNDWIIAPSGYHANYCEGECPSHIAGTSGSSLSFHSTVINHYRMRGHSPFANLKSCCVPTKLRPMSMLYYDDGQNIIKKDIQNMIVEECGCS
# Method notes: BiaCore; receptor-Fc captured by anti-hFc antibody, ligand injected
# Method: Binding of certain ActRIIB-Fc proteins and GDF Traps to ligands was tested in a BiaCore™ assay. The ActRIIB-Fc variants or wild-type protein were captured onto the system using an anti-hFc antibody. Ligands were injected and flowed over the captured receptor proteins.
Outcome measure: Kd (nM)

I = ActRIIB(R64K 20-129)-hFc (Fc fusion, not shown: linker (if any) and human Fc (hFc)) GRGEAETRECIYYNANWELERTNQSGLERCEGEQDKRLHCYASWKNSSGTIELVKKGCWLDDFNCYDRQECVATEENPQVYFCCCEGNFCNERFTHLPEAGGPEVTYEPP
II = ActRIIB(R64K 20-134)-hFc (Fc fusion, not shown: linker (if any) and human Fc (hFc)) GRGEAETRECIYYNANWELERTNQSGLERCEGEQDKRLHCYASWKNSSGTIELVKKGCWLDDFNCYDRQECVATEENPQVYFCCCEGNFCNERFTHLPEAGGPEVTYEPPPTAPT
Exercise: // task: argmin of Kd over [ I , II ] Answer format: the label of the selected item.
Key: II
